Target: UniProt:P20273
Experiment: new affinity assay: displacement of biotinylated compound 155 from sialidase-treated Daudi cells, FACS with streptavidin-PE
Assay type: binding
Set-up: endogenous in cells; host or cells: Daudi (human B-cell lymphoma line)
Settings: Table II; rIP values set relative to compound 38; Daudi cells, displacement of compound 155
Method: To determine the affinity of the compound of the formula (I), approximately 5×10^6 to 2×10^8 cells of the human B-cell lymphoma line “Daudi” were incubated with sialidase (A. ureafaciens) at 37° C. for 1 h (final concentration 0.1 unit/ml). […] Batches of 1-2×10^6 cells were transferred to sample vessels, and incubated on ice for 15 min with serial concentrations (10-fold dilutions, 1 mM to 1×10^−7 mM) of the substance under measurement (inhibitor). The reaction volume was 50 μl. […]
rIP vs 400: at or above is 1, below is -1.

CC(=O)N[C@H]1[C@H]([C@H](O)[C@H](O)CNC(=O)c2ccc(-c3ccco3)cc2)O[C@@](OCCCSCCNC(=O)c2ccc(C(=O)NCCSCCCO[C@]3(C(=O)[O-])C[C@H](O)[C@@H](NC(C)=O)[C@H]([C@H](O)[C@H](O)CNC(=O)c4ccc(-c5ccco5)cc4)O3)cc2)(C(=O)[O-])C[C@@H]1O.[Na+].[Na+] [Compound 82] :: 1
CC(=O)N[C@H]1[C@H]([C@H](O)[C@H](O)CNC(=O)c2ccc(-c3ccccc3)cc2)O[C@@](OCCCSCCNC(=O)CC(=O)NCCSCCCO[C@]2(C(=O)[O-])C[C@H](O)[C@@H](NC(C)=O)[C@H]([C@H](O)[C@H](O)CNC(=O)c3ccc(-c4ccccc4)cc3)O2)(C(=O)[O-])C[C@@H]1O.[Na+].[Na+] [Compound 37] :: -1
CC(=O)N[C@H]1[C@H]([C@H](O)[C@H](O)CNC(=O)c2ccc(-c3ccc(O)cc3)cc2)O[C@@](OCCCSCCNC(=O)c2ccc(C(=O)NCCSCCCO[C@]3(C(=O)[O-])C[C@H](O)[C@@H](NC(C)=O)[C@H]([C@H](O)[C@H](O)CNC(=O)c4ccc(-c5ccc(O)cc5)cc4)O3)cc2)(C(=O)[O-])C[C@@H]1O.[Na+].[Na+] [Compound 67] :: 1
CC(=O)N[C@H]1[C@H]([C@H](O)[C@H](O)CNC(=O)c2ccc(-c3ccccc3)cc2)O[C@@](OCCCSCCC(=O)Nc2cccc(NC(=O)CCSCCCO[C@]3(C(=O)[O-])C[C@H](O)[C@@H](NC(C)=O)[C@H]([C@H](O)[C@H](O)CNC(=O)c4ccc(-c5ccccc5)cc4)O3)c2)(C(=O)[O-])C[C@@H]1O.[Na+].[Na+] [Compound 41] :: 1
CC(=O)N[C@H]1[C@H]([C@H](O)[C@H](O)CNC(=O)c2ccc(-c3ccsc3)cc2)O[C@@](OCCCSCCNC(=O)c2ccc(C(=O)NCCSCCCO[C@]3(C(=O)[O-])C[C@H](O)[C@@H](NC(C)=O)[C@H]([C@H](O)[C@H](O)CNC(=O)c4ccc(-c5ccsc5)cc4)O3)cc2)(C(=O)[O-])C[C@@H]1O.[Na+].[Na+] [Compound 81] :: 1

Next up:
Challenge: Hello, I need to know if CC(=O)N[C@H]1[C@H]([C@H](O)[C@H](O)CNC(=O)c2ccc(C3CCCCC3)cc2)O[C@@](OCCCSCCNC(=O)c2ccc(C(=O)NCCSCCCO[C@]3(C(=O)[O-])C[C@H](O)[C@@H](NC(C)=O)[C@H]([C@H](O)[C@H](O)CNC(=O)c4ccc(C5CCCCC5)cc4)O3)cc2)(C(=O)[O-])C[C@@H]1O.[Na+].[Na+] [Compound 57] has measured rIP not below 400. Thanks!
Response given: -1

----------
In this section we review reported rIP values for a set of compounds.
biological target: Siglec-2 (CD22) (Homo sapiens, UniProt P20273); experiment: new affinity assay: displacement of biotinylated compound 155 from sialidase-treated Daudi cells, FACS with streptavidin-PE; assay type: binding; parameters: endogenous in cells; host or cells: Daudi (human B-cell lymphoma line); conditions: Table II; rIP values set relative to compound 38; Daudi cells, displacement of compound 155
Sequence (P20273 20-847): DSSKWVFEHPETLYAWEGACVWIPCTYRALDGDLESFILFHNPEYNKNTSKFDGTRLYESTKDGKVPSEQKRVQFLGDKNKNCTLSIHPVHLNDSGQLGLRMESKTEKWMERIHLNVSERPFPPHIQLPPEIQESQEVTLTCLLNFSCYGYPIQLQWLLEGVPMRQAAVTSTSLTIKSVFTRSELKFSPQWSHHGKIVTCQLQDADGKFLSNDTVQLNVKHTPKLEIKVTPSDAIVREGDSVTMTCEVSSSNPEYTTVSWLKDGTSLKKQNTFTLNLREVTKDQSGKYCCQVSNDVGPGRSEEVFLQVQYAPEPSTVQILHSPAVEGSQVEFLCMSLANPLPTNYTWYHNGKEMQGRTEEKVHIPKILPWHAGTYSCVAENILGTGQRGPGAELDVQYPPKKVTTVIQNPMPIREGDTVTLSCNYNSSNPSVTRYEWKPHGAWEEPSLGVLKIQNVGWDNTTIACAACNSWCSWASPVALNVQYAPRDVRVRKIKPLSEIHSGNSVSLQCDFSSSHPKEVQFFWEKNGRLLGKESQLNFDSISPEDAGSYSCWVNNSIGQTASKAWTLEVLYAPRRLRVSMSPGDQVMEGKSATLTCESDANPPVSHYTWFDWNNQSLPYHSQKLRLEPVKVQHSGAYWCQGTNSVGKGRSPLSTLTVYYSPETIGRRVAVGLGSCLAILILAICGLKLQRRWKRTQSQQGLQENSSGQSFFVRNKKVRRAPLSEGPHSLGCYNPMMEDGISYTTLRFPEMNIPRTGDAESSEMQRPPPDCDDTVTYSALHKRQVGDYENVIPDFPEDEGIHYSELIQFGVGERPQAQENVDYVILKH

CC(=O)N[C@H]1[C@H]([C@H](O)[C@H](O)CNC(=O)c2ccc(-c3ccccc3)cc2)O[C@@](OCCCSCCC(=O)NCCCCCCNC(=O)CCSCCCO[C@]2(C(=O)[O-])C[C@H](O)[C@@H](NC(C)=O)[C@H]([C@H](O)[C@H](O)CNC(=O)c3ccc(-c4ccccc4)cc3)O2)(C(=O)[O-])C[C@@H]1O.[Na+].[Na+] :: 15
COc1ccccc1-c1ccc(C(=O)NC[C@@H](O)[C@@H](O)[C@@H]2O[C@@](OCCCSCCNC(=O)c3ccc(C(=O)NCCSCCCO[C@]4(C(=O)[O-])C[C@H](O)[C@@H](NC(C)=O)[C@H]([C@H](O)[C@H](O)CNC(=O)c5ccc(-c6ccccc6OC)cc5)O4)cc3)(C(=O)[O-])C[C@H](O)[C@H]2NC(C)=O)cc1.[Na+].[Na+] :: 27

Challenge: Query (compound): CC(=O)N[C@H]1[C@H]([C@H](O)[C@H](O)CNC(=O)c2ccc(-c3ccccc3)cc2)O[C@@](OCCCSCCNC(=O)c2ccc(C(=O)NCCSCCCO[C@]3(C(=O)[O-])C[C@H](OC(=O)c4ccccc4)[C@@H](NC(C)=O)[C@H]([C@H](O)[C@H](O)CNC(=O)c4ccc(-c5ccccc5)cc4)O3)cc2)(C(=O)[O-])C[C@@H]1OC(=O)c1ccccc1.[Na+].[Na+] ; field requested: rIP
Response given: 3522

----------
target: Siglec-2 (CD22) (Homo sapiens, UniProt P20273); experiment: new affinity assay: displacement of biotinylated compound 155 from sialidase-treated Daudi cells, FACS with streptavidin-PE; format: binding; set-up: endogenous in cells; host or cells: Daudi (human B-cell lymphoma line); details: Table II; rIP values set relative to compound 38; Daudi cells, displacement of compound 155
Recorded rIP by entry
Please respond with just the number, no unit label.

CC(=O)N[C@H]1[C@H]([C@H](O)[C@H](O)CNC(=O)c2ccc(-c3cccs3)cc2)O[C@@](OCCCSCCNC(=O)c2ccc(C(=O)NCCSCCCO[C@]3(C(=O)[O-])C[C@H](O)[C@@H](NC(C)=O)[C@H]([C@H](O)[C@H](O)CNC(=O)c4ccc(-c5cccs5)cc4)O3)cc2)(C(=O)[O-])C[C@@H]1O.[Na+].[Na+] :: 14342

Let us move to another entry and its rIP.
Challenge: GET /values?readout=rIP&item= CC(=O)N[C@H]1[C@H]([C@H](O)[C@H](O)CNC(=O)c2ccc(-c3ccccc3)cc2)O[C@@](OCCCSCCC(=O)Nc2ccccc2NC(=O)CCSCCCO[C@]2(C(=O)[O-])C[C@H](O)[C@@H](NC(C)=O)[C@H]([C@H](O)[C@H](O)CNC(=O)c3ccc(-c4ccccc4)cc3)O2)(C(=O)[O-])C[C@@H]1O.[Na+].[Na+]
Response given: 359

----------
biological target: Siglec-2 (CD22) (Homo sapiens); test: new affinity assay: displacement of biotinylated compound 155 from sialidase-treated Daudi cells, FACS with streptavidin-PE; type: binding; parameters: endogenous in cells; host or cells: Daudi (human B-cell lymphoma line); conditions: Table II; rIP values set relative to compound 38; Daudi cells, displacement of compound 155
Measure Name: rIP

Challenge: Any idea what rIP was measured for CC(=O)N[C@H]1[C@H]([C@H](O)[C@H](O)CNC(=O)c2ccc(-c3c4ccc(=O)cc-4oc4cc(O)ccc34)c(C(=O)[O-])c2)O[C@@](OCCCSCCNC(=O)c2ccc(-c3ccc(C(=O)NCCSCCCO[C@]4(C(=O)[O-])C[C@H](O)[C@@H](NC(C)=O)[C@H]([C@H](O)[C@H](O)CNC(=O)c5ccc(-c6c7ccc(=O)cc-7oc7cc(O)ccc67)c(C(=O)[O-])c5)O4)cc3)cc2)(C(=O)[O-])C[C@@H]1O.[Na+].[Na+].[Na+].[Na+] ?
Response given: 4

----------
target: Siglec-2 (CD22) (Homo sapiens, UniProt P20273); test: new affinity assay: displacement of biotinylated compound 155 from sialidase-treated Daudi cells, FACS with streptavidin-PE; format: binding; parameters: endogenous in cells; host or cells: Daudi (human B-cell lymphoma line); settings: Table II; rIP values set relative to compound 38; Daudi cells, displacement of compound 155
Measure Name: rIP
API note: the answer field is a bare number with no unit suffix.

Challenge: Field request: rIP | item: CC(=O)N[C@H]1[C@H]([C@H](O)[C@H](O)CNC(=O)c2ccc(-c3ccccc3)cc2)O[C@@](OCCCSCCNCc2ccc(CNCCSCCCO[C@]3(C(=O)[O-])C[C@H](O)[C@@H](NC(C)=O)[C@H]([C@H](O)[C@H](O)CNC(=O)c4ccc(-c5ccccc5)cc4)O3)cc2)(C(=O)[O-])C[C@@H]1O.[Na+].[Na+]
Response given: 31

Reference for the values: patent US9260467B2
